Reference source: PubChem BioAssay (NCI)

experiment: NCI Yeast Anticancer Drug Screen. Data for the mlh1 rad18 strain (AID 175); details: S. cerevisiae mlh1 rad18 strain growth inhibition; at 5.0 µM (retest, dose inferred, filed as 0.5); active compounds read high
The panel holds about 79,000 compounds, 15% with a hit somewhere; the sample as a whole holds those more often.

compound: N#CCCN(CCCN1CCOCC1)C(=S)Nc1cccc(C(F)(F)F)c1
growth inhibition (%): 48
//
compound: CCCCCCCCC(=O)NCCN(CCN)C(=O)CCCCCCCC
growth inhibition (%): -68
//
compound: Cc1ccc2c(ccc3c[n+]4c5ccccc5ccc4n32)c1
growth inhibition (%): 95
//
compound: O=C1c2cccnc2-c2nccc3c2c1nc1cc(Br)ccc13
growth inhibition (%): 58
//
compound: CC(=O)Oc1cc2c(cc1OC(C)=O)OCC(c1ccc(C)cc1)C2 (configuration not stated)
growth inhibition (%): 0
//
compound: Cc1occc1C(=S)Nc1ccc(Cl)c(C(=O)OCC(C)C)c1
growth inhibition (%): 33
//
compound: O=S1(=O)CS(=O)(=O)OCCCO1
growth inhibition (%): 11
//
compound: NC(N)=N/N=C/c1ccc([N+](=O)[O-])o1
growth inhibition (%): 10
//
compound: C/C=c1/[nH]c(=O)/c(=C\c2ccccc2)[nH]c1=O
growth inhibition (%): 24
//
compound: CN(C)CCC(=O)C(=Cc1cc(Cl)cc(Cl)c1)C(=O)CCN(C)C
growth inhibition (%): -4
//
compound: COC(=O)c1ccc(OC)cc1
growth inhibition (%): 3
//
compound: O=C1c2ccccc2-c2ccccc2C(=O)C1(Br)Br
growth inhibition (%): 0
